- System: PTEN (Homo sapiens, UniProt P60484)
- Sequence (P60484 whole entry, species assumed): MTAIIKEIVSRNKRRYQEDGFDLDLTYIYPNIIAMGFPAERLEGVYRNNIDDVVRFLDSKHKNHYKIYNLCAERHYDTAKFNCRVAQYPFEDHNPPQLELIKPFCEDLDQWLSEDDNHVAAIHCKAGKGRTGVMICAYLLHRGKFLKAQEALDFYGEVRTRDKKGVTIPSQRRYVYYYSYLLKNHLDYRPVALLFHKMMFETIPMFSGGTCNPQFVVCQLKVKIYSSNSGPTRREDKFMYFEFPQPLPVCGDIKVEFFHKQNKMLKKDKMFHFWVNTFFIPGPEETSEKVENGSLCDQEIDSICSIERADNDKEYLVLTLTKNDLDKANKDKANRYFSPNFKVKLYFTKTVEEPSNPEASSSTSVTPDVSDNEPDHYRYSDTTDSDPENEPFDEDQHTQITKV
- Test: PTEN Inhibition Assay: IC50 Determinations
- Assay type: biochemical
- Conditions: Table 29; read-out: PTEN IC50
Provide the reported IC50 of each item.
Output spec: scalar in µM, unitless text.

### Prompt Param item = O=C1Nc2ccc(F)cc2C1=O [SF1820-000] ; retrieve measured IC50.
### Response 61.9

### Prompt Param item = O=C1Nc2c(Cl)ccc(Cl)c2C1=O [SF1822-000] ; retrieve measured IC50.
### Response 24.5

### Prompt Param item = O=C(COc1ccccc1[N+](=O)[O-])Nc1ccc2c(c1)C(=O)C(=O)c1ccccc1-2 [SF1796-000] ; retrieve measured IC50.
### Response 0.65

* * *

- System: PTEN (Homo sapiens)
- Test: PTEN Inhibition Assay: General Screening
- Assay type: biochemical
- Conditions: 250 uM; Table 27 isatins; read-out: % Inhibition @250 uM
Provide the reported inhibition at 250 µM of each item.
Output spec: scalar in %, unitless text.

### Prompt Param item = O=C1Nc2ccc(Cl)cc2C1=O ; retrieve measured inhibition at 250 µM.
### Response 95

### Prompt Param item = Cc1ccc(C(=O)Nc2ccc3c(c2)C(=O)C(=O)N3)cc1 ; retrieve measured inhibition at 250 µM.
### Response 98.5

### Prompt Param item = O=C1Nc2ccc([N+](=O)[O-])cc2C1=O ; retrieve measured inhibition at 250 µM.
### Response 99.4

* * *

- System: PTEN (Homo sapiens, UniProt P60484)
- Test: PTEN Inhibition Assay: IC50 Determinations
- Format: biochemical
pIC50: −log10 of the molar value.
Values of pIC50 greater than or equal to 5 map to rule met; values below map to rule not met.

### Prompt Quick check, pIC50 >= 5? O=C1C=Cc2ccccc2C1=O [SF1736-000]
### Response rule not met

### Prompt Quick check, pIC50 >= 5? O=C1C(=O)c2cc(NCc3ccccc3)ccc2-c2ccccc21 [SF1800-000]
### Response rule met

### Prompt Quick check, pIC50 >= 5? CCOC(=O)C(=O)Nc1ccc2c(c1)C(=O)C(=O)c1ccccc1-2 [SF1786-000]
### Response rule met

### Prompt Quick check, pIC50 >= 5? O=C1C(=O)c2cc([N+](=O)[O-])ccc2-c2ccccc21 [SF1722-000]
### Response rule met

### Prompt Quick check, pIC50 >= 5? CCN(N=O)c1ccc(O)c(O)c1 [SF1681-000, 3,4-Dephostatin, Ethyl-, reference compound]
### Response rule not met

### Prompt Quick check, pIC50 >= 5? Cc1ccc(C(=O)Nc2ccc3c(c2)C(=O)C(=O)c2ccccc2-3)cc1 [SF1779-000]
### Response rule met

### Prompt Quick check, pIC50 >= 5? O=C(CCCc1ccccc1)Nc1ccc2c(c1)C(=O)C(=O)c1ccccc1-2 [SF1785-000]
### Response rule met

* * *

Provide the reported pIC50 of each item.
- System: PTP1B (Homo sapiens, UniProt P18031)
- Sequence (P18031 1-435): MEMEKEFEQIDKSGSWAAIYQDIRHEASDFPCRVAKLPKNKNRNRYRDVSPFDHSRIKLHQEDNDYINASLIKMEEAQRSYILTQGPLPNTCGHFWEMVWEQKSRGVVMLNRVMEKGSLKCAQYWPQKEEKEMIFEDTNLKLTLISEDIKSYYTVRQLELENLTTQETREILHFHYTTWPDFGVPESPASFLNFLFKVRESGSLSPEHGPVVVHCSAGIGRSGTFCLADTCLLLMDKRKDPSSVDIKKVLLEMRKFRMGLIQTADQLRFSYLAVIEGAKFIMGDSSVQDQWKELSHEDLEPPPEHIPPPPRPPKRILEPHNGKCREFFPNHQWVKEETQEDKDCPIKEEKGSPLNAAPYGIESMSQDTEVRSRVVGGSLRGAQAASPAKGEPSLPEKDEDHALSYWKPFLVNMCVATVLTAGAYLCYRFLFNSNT
- Test: PTP1B Inhibition Assay: IC50 Determinations
- Type: biochemical
pIC50: −log10 of the molar value.

### Prompt Param item = CCOC(=O)Nc1ccc2c(c1)C(=O)C(=O)c1ccccc1-2 ; retrieve measured pIC50.
### Response > 6.00

### Prompt Param item = O=C(CCCc1ccccc1)Nc1ccc2c(c1)C(=O)C(=O)c1ccccc1-2 ; retrieve measured pIC50.
### Response 5.00 to 6.00

### Prompt Param item = Cc1ccc(OCC(=O)Nc2ccc3c(c2)C(=O)C(=O)c2ccccc2-3)cc1 ; retrieve measured pIC50.
### Response 6.35

### Prompt Param item = O=C1C(=O)c2cc(NCc3ccccc3)ccc2-c2ccccc21 ; retrieve measured pIC50.
### Response > 5.00

### Prompt Param item = O=C1C(=O)c2cc(NS(=O)(=O)c3cccs3)ccc2-c2ccccc21 ; retrieve measured pIC50.
### Response > 5.00

### Prompt Param item = CCN(N=O)c1ccc(O)c(O)c1 [SF1681-000, 3,4-Dephostatin, Ethyl-, reference compound] ; retrieve measured pIC50.
### Response 4.30

### Prompt Param item = O=C(O)CCC(=O)Nc1ccc2c(c1)C(=O)C(=O)c1ccccc1-2 ; retrieve measured pIC50.
### Response 5.00 to 6.00

### Prompt Param item = O=C(COc1ccc(Cl)cc1)Nc1ccc2c(c1)C(=O)C(=O)c1ccccc1-2 ; retrieve measured pIC50.
### Response 5.00 to 6.00
